target.or.system: hSLIT2-His (Homo sapiens, UniProt O94813)
Sequence (O94813 31-1529): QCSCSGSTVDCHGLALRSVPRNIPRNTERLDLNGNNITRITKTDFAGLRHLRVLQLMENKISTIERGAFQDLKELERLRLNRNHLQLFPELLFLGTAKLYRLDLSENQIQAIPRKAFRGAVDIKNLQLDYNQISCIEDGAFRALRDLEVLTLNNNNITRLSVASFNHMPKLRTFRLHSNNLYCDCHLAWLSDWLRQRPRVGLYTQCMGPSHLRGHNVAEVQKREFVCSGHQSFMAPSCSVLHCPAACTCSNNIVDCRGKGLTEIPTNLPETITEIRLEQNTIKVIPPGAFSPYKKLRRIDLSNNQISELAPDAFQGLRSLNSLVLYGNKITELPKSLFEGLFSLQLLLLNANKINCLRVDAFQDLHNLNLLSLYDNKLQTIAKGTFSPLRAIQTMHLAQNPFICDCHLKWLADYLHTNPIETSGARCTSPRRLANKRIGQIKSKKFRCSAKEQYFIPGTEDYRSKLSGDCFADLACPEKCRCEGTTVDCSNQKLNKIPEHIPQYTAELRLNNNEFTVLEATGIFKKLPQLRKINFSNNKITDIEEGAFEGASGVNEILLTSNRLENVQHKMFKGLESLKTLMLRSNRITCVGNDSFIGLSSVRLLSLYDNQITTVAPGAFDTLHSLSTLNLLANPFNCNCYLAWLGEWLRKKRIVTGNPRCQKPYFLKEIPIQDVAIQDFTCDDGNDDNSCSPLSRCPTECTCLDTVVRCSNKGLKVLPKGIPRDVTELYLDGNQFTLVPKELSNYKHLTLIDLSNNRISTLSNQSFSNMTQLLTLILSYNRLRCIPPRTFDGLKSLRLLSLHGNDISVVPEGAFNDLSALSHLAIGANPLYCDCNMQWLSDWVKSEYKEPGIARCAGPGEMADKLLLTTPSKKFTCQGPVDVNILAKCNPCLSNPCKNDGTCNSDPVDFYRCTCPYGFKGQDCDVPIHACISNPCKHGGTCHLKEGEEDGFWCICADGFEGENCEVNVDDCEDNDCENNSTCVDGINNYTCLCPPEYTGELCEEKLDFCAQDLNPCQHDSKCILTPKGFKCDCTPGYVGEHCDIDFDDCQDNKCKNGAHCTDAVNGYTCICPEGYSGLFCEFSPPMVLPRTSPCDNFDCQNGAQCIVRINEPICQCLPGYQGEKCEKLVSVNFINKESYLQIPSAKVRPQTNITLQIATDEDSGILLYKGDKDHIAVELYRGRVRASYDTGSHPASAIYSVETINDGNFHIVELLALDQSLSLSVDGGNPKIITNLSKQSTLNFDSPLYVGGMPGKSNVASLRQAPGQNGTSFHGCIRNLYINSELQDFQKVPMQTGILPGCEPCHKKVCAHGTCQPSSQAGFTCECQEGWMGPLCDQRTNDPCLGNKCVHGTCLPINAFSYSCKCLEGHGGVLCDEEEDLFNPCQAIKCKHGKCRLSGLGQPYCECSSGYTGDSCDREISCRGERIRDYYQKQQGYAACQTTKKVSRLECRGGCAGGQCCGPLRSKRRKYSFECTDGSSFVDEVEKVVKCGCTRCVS
experimental.readout: pKd
A value of pKd is the negative decimal logarithm of a concentration given in moles per litre.

Query: Quick check: pKd of C=C(c1ccc(C(=O)O)cc1)c1cc2c(cc1C)C(C)(C)CCC2(C)C [bexarotene] ?
Response: 5.58
